method-summary: Kinetic aqueous solubility (pION method)
Type: physicochemical
experimental-conditions: pH 7.4, conc. tested 200 μM with 1% DMSO, 16 h incubation
Readings of Mean Solubility (N = 3) at pH for the listed compounds
property-measured: Mean Solubility (N = 3) at pH

compound=Cc1cccc(C[C@@]2(C(=O)N[C@H](C(N)=O)[C@@H](C)O)CCCN2C(=O)[C@@H]2CCCN2C(=O)[C@@H](N)[C@@H](C)O)c1 assay_value=>200
compound=C[C@@H](O)[C@H](N)C(=O)N1CCC[C@H]1C(=O)N1CCC[C@@]1(Cc1ccc(F)cc1)C(=O)N[C@H](C(N)=O)[C@@H](C)O assay_value=>200
compound="CC/C(=C(/CC)c1ccc(O)cc1)c1ccc(O)cc1 [DES, reference compound]" assay_value="2.6 ± 2.1"
compound=Cc1ccc(C[C@@]2(C(=O)N[C@H](C(N)=O)[C@@H](C)O)CCCN2C(=O)[C@@H]2CCCN2C(=O)[C@@H](N)[C@@H](C)O)cc1 assay_value=>200
compound=C[C@@H](O)[C@H](N)C(=O)N1CCC[C@H]1C(=O)N1CCC[C@@]1(Cc1cccc(F)c1)C(=O)N[C@H](C(N)=O)[C@@H](C)O assay_value="148 ± 42"
